Each recorded value in this set is attributed to paper PMC6825221.

experimental_target: KCNQ3* (Homo sapiens, UniProt O43525, A315T)
measurement_description: TEVC of homomeric KCNQ3* (A315T KCNQ3 mutant) expressed in Xenopus oocytes
assay_conditions: ΔV0.5act; read-out: EC50, KCNQ3* activation
outcome_measure: EC50 (nM)
Supply the numeric figure in nM, leaving out any unit text.

Requested read-out: EC50. Entry: CS(=O)(=O)N(CC(=O)O)c1cccc(F)c1
18

###

experimental_target: KCNQ2 (Homo sapiens)
measurement_description: TEVC of homomeric KCNQ2 expressed in Xenopus oocytes
assay_conditions: wild-type KCNQ2, ΔV0.5act; read-out: EC50, KCNQ2 activation
outcome_measure: EC50 (nM)
Supply the numeric figure in nM, leaving out any unit text.

Requested read-out: EC50. Entry: NC(C(=O)O)c1ccc(F)cc1 (stereo not shown)
69

###

experimental_target: KCNQ2/3 (Homo sapiens, UniProt O43525+O43526)
measurement_description: TEVC of KCNQ2/3 channels expressed in Xenopus oocytes
Assay type: cell-based
assay_conditions: shift in voltage dependence of activation (ΔV0.5act), TEVC in oocytes; read-out: EC50, KCNQ2/3 activation
Quick reference for EC50 among some compounds
Supply the numeric figure in nM, leaving out any unit text.

- compound: "NC(C(=O)O)c1ccc(F)cc1 (centres unmarked)"
  unit_tag: "nM"
  EC50: 61

API: the following record is the query input.
Requested read-out: EC50. Entry: CS(=O)(=O)N(CC(=O)O)c1cccc(F)c1
51
